target: BRK (Homo sapiens)
Sequence (Q13882 whole entry): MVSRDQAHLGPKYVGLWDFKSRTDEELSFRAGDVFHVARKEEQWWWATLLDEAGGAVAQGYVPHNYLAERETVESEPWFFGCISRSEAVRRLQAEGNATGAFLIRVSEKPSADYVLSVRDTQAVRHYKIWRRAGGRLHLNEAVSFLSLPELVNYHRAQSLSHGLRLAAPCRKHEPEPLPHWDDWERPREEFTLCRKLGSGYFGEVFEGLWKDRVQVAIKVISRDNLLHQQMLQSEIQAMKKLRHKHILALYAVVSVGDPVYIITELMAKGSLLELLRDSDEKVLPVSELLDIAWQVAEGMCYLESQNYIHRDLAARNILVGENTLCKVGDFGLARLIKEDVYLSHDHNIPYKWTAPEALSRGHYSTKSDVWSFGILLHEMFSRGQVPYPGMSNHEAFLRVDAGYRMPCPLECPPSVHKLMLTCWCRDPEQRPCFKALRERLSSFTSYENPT
Readout Name: pIC50
Quick note: pIC50 means taking -log10 of the concentration in moles per liter.

Q: // fetch pIC50 given entry C=CC(=O)N1CCC([C@@H]2CCNc3c(C(N)=O)c(-c4ccc(Oc5ccccc5)cc4)nn32)CC1
Result: 7.74

====

tested on: 134 cancer cell lines; test: Cell viability assay (ATPlite, 72 hours), IC50 on cancer cell line panel; conditions: Homo sapiens, CCRF-CEM, read-out: IC50 in cell proliferation assay, cell line CCRF-CEM
pIC50: −log10 of the molar value.
Values of pIC50 greater than or equal to 5 map to fulfilled; values below map to not fulfilled.

Q: Hello, I need to know if FC(F)(F)c1ccc(CNc2ccc(Cc3c[nH]c4ncc(Cl)cc34)cn2)cn1 has measured pIC50 not below 5. Thanks!
Result: not fulfilled

Q: Exam item: decide whether the reported pIC50 for Cc1cc(Nc2ncnc3ccc(NC4=NC(C)(C)CO4)cc23)ccc1Oc1ccn2ncnc2c1 is at least 5.
Result: not fulfilled

Q: hey, is pIC50 for this one >= 5? Cc1cc(Nc2ncc(Cl)c(Nc3ccccc3S(=O)(=O)C(C)C)n2)c(OC(C)C)cc1C1CCNCC1
Result: fulfilled

Q: Textbook exercise: given the entry CCCS(=O)(=O)Nc1ccc(F)c(C(=O)c2c[nH]c3ncc(-c4ccc(Cl)cc4)cc23)c1F , state whether its pIC50 is greater than or equal to 5.
Result: not fulfilled

Q: Has CC(=O)Nc1cccc(-n2c(=O)n(C3CC3)c(=O)c3c(Nc4ccc(I)cc4F)n(C)c(=O)c(C)c32)c1 a recorded pIC50 greater than or equal to 5?
Result: not fulfilled

Q: Item COc1cc2ncnc(Nc3ccc(F)c(Cl)c3)c2cc1NC(=O)/C=C/CN1CCCCC1 with pIC50 of 5 or above?
Result: fulfilled

====

Answer each item with its documented IC50.
test system: 134 cancer cell lines; experiment: Cell viability assay (ATPlite, 72 hours), IC50 on cancer cell line panel; details: Homo sapiens, SK-N-SH, read-out: IC50 in cell proliferation assay
# unit: µM | format: bare number

Q: Identify IC50 associated with the molecule CCn1c(=O)c(-c2cc(NC(=O)Nc3ccccc3)c(F)cc2Br)cc2cnc(NC)cc21 [ripretinib]
Result: 3.61

Q: Determine its reported IC50: CC#CC(=O)N1CCC[C@H]1c1nc(-c2ccc(C(=O)Nc3ccccn3)cc2)c2c(N)nccn12 [acalabrutinib]
Result: 9.87

====

Please provide measured inhibition at 1 µM for the entries that follow.
target: panel of 255 wild-type kinases (Homo sapiens, UniProt Q96GD4); experiment: Kinase panel profiling at 1 µmol/L (MSA or IMAP), percentage inhibition; type: biochemical; conditions: AurB kinase assay; 1 µmol/L single concentration; read-out: %-inhibition AurB
Sequence (Q96GD4 whole entry): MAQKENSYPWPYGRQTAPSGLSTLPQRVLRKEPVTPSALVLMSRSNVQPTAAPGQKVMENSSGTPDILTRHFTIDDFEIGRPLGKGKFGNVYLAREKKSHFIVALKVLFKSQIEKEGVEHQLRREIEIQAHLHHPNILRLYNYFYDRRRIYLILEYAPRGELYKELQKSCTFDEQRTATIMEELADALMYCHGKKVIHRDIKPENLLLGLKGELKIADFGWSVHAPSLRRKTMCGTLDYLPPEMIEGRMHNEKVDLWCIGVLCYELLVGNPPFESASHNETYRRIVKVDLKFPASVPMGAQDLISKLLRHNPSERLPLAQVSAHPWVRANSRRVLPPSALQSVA
Response body: numeric value in %, unit text excluded.

Q: Answer with inhibition at 1 µM of FC(F)(F)c1ccc(CNc2ccc(Cc3c[nH]c4ncc(Cl)cc34)cn2)cn1 measured for panel of 255 wild-type kinases (Homo sapiens, UniProt Q96GD4).
Result: 60

Q: Lab note: record inhibition at 1 µM of C[C@H]1Oc2cc(cnc2N)-c2c(nn(C)c2C#N)CN(C)C(=O)c2ccc(F)cc21 tested on panel of 255 wild-type kinases (Homo sapiens, UniProt Q96GD4).
Result: 5

Q: // output inhibition at 1 µM; input CCN1CCN(c2ccc(Nc3cc(N(C)C(=O)Nc4c(Cl)c(OC)cc(OC)c4Cl)ncn3)cc2)CC1 ; system panel of 255 wild-type kinases (Homo sapiens, UniProt Q96GD4)
Result: -5

Q: Report inhibition at 1 µM on panel of 255 wild-type kinases (Homo sapiens, UniProt Q96GD4) for this entry: CO[C@]1(C(=O)N[C@@H](C)c2ccc(-n3cc(F)cn3)nc2)CC[C@H](c2nc(C)cc(Nc3cc(C)[nH]n3)n2)CC1
Result: 38

Q: # return inhibition at 1 µM of Cn1cc(-c2cc3c(N4CCN(c5ncc([C@@](C)(N)c6ccc(F)cc6)cn5)CC4)ncnn3c2)cn1 (system: panel of 255 wild-type kinases (Homo sapiens, UniProt Q96GD4))
Result: 20

Q: Write down measured inhibition at 1 µM (panel of 255 wild-type kinases (Homo sapiens, UniProt Q96GD4)) for this compound. Cc1cc(Nc2ncnc3ccc(NC4=NC(C)(C)CO4)cc23)ccc1Oc1ccn2ncnc2c1
Result: -0.568

Q: Lab note: panel of 255 wild-type kinases (Homo sapiens, UniProt Q96GD4) assay, enter inhibition at 1 µM for C=CC(=O)N1CCC([C@@H]2CCNc3c(C(N)=O)c(-c4ccc(Oc5ccccc5)cc4)nn32)CC1 here
Result: -4

Q: Please indicate recorded inhibition at 1 µM of Cn1cnc2c(F)c(Nc3ccc(Br)cc3F)c(C(=O)NOCCO)cc21 measured with panel of 255 wild-type kinases (Homo sapiens, UniProt Q96GD4).
Result: -3.18

Q: GET inhibition at 1 µM | system: panel of 255 wild-type kinases (Homo sapiens, UniProt Q96GD4) | item: COc1cc2ncnc(Nc3ccc(F)c(Cl)c3)c2cc1NC(=O)/C=C/CN1CCCCC1
Result: 2

Q: System panel of 255 wild-type kinases (Homo sapiens, UniProt Q96GD4). Read-out inhibition at 1 µM. Item O=C(Nc1cnn2ccc(N3CCC[C@@H]3c3cc(F)ccc3F)nc12)N1CC[C@H](O)C1 . Report value.
Result: -4.57

Q: Report inhibition at 1 µM from panel of 255 wild-type kinases (Homo sapiens, UniProt Q96GD4) testing of C[C@H](Nc1ncnc2nc[nH]c12)c1cc2cccc(Cl)c2c(=O)n1-c1ccccc1
Result: 0.417

Q: Look up panel of 255 wild-type kinases (Homo sapiens, UniProt Q96GD4) data: inhibition at 1 µM of CN1CCN(c2ccc(C(=O)Nc3n[nH]c4ccc(Cc5cc(F)cc(F)c5)cc34)c(NC3CCOCC3)c2)CC1 , then report it.
Result: 48

Q: Name the recorded inhibition at 1 µM of COC(=O)N[C@@H](C)CNc1nccc(-c2cn(C(C)C)nc2-c2cc(Cl)cc(NS(C)(=O)=O)c2F)n1 , assay system panel of 255 wild-type kinases (Homo sapiens, UniProt Q96GD4).
Result: -0.69

Q: Check panel of 255 wild-type kinases (Homo sapiens, UniProt Q96GD4) data and give inhibition at 1 µM for COc1ccc(CN2C3CC2CN(c2ccc(-c4cc(OCC(C)(C)O)cn5ncc(C#N)c45)cn2)C3)cn1 .
Result: 79

Q: Identify measured inhibition at 1 µM obtained with panel of 255 wild-type kinases (Homo sapiens, UniProt Q96GD4) for Cc1nc(NC(=O)N2CCC[C@H]2C(N)=O)sc1-c1ccnc(C(C)(C)C(F)(F)F)c1 .
Result: -4.26

Q: Please report the measured inhibition at 1 µM for CCn1c(=O)c(-c2cc(NC(=O)Nc3ccccc3)c(F)cc2Br)cc2cnc(NC)cc21 tested on panel of 255 wild-type kinases (Homo sapiens, UniProt Q96GD4).
Result: 5

Q: Report inhibition at 1 µM on panel of 255 wild-type kinases (Homo sapiens, UniProt Q96GD4) for this entry: CCN1C(=O)N(c2c(F)c(OC)cc(OC)c2F)Cc2cnc3[nH]c(CN4CCOCC4)cc3c21
Result: 2.32

Q: GET inhibition at 1 µM | system: panel of 255 wild-type kinases (Homo sapiens, UniProt Q96GD4) | item: Cn1cnc2c(F)c(Nc3ccc(Br)cc3Cl)c(C(=O)NOCCO)cc21
Result: 12

Where these numbers come from: paper PMC9516332
